Target: Kappa-type opioid receptor (Homo sapiens, UniProt P41145); further: assay procedure not described here
Sequence (P41145 whole entry): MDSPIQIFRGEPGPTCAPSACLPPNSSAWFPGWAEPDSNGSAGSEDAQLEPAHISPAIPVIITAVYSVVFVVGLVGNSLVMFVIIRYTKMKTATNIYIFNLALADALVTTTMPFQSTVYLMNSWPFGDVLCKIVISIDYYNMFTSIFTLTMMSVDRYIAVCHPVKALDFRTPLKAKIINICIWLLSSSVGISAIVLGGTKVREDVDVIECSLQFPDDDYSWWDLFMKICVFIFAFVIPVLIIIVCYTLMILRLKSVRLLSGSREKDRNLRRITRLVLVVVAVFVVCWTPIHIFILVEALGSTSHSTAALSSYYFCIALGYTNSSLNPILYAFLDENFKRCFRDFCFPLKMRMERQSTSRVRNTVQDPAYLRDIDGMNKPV
readout: AC50

| molecule | systemTested | recordedResult |
| --- | --- | --- |
| COc1cc(N)cn[n+]1-c1ccccc1 [AMEZINIUM METILSULFATE] | Kappa-type opioid receptor (Homo sapiens, UniProt P41145) | > 30 µM |
| Oc1cc(O)c2c(c1)O[C@H](c1ccc(O)c(O)c1)[C@@H](O)C2 [CIANIDANOL] | Kappa-type opioid receptor (Homo sapiens, UniProt P41145) | > 10 µM |
| C=C(c1ccccc1OCc1cccc(Cl)c1)n1ccnc1 [CROCONAZOLE] | Kappa-type opioid receptor (Homo sapiens, UniProt P41145) | 1.03 µM |
| CC(C)CN(C[C@@H](O)[C@H](Cc1ccccc1)NC(=O)O[C@H]1CCOC1)S(=O)(=O)c1ccc(N)cc1 | Kappa-type opioid receptor (Homo sapiens, UniProt P41145) | > 10 µM |
| C[C@]12CCC(=O)C=C1CC[C@H]1[C@@H]3CC[C@](O)(C(=O)CO)[C@@]3(C)C[C@H](O)[C@@]12F [FLUDROCORTISONE] | Kappa-type opioid receptor (Homo sapiens, UniProt P41145) | > 10 µM |
| OCC(CO)N[C@H]1C[C@](O)(CO)[C@@H](O)[C@H](O)[C@H]1O [VOGLIBOSE] | Kappa-type opioid receptor (Homo sapiens, UniProt P41145) | > 30 µM |
| CC(C)(C)NCC(O)COc1cccc2c1CC(O)C(O)C2 (stereo not drawn) [NADOLOL] | Kappa-type opioid receptor (Homo sapiens, UniProt P41145) | > 10 µM |
| CC1=C(/C=C/C(C)=C/C=C/C(C)=C/C(=O)Oc2c(C)c(C)c3c(c2C)CCC(C)(CCCC(C)CCCC(C)CCCC(C)C)O3)C(C)(C)CCC1 (stereo not drawn) [TRETINOIN TOCOFERIL] | Kappa-type opioid receptor (Homo sapiens, UniProt P41145) | > 30 µM |
